Source of measurements: PubChem BioAssay (NCATS)

- Tested on: CP305
- assay_remarks: qHTS profiling for inhibitors of Plasmodium falciparum proliferation (AID 504749);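 also: 0% = DMSO vehicle and full inhibition = artemisinin control; nearly all actives have a fitted effect of over 60% in size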
- measurement_context: P. falciparum in erythrocytes, SYBR Green DNA, 72 h; series mostly up to 12.8 µM
Results filed as inconclusive are left out. Activity calls are given as the source filed them. Calls follow the shape of the dose curve; as a rule, active = well fitted inhibition curve with a large enough effect; inconclusive = small, poorly fitted or top-dose-only effect; inactive = flat fitted curve, though single readings scatter.
Pick one: active, inactive

molecule	assigned_category
Cn1c(=O)c2c(ncn2C[C@@H](O)CO)n(C)c1=O	inactive

Here's the next entry for you.
*Q* // param item: `CN(N=O)C(=O)N[C@H]1[C@@H](O)[C@H](O)[C@H](CO)O[C@@H]1O` ; yields the recorded call
*A* inactive

* * *

- experimental_target: Cytochrome P450 1A2 (Homo sapiens) (UniProt P05177)
- Sequence (P05177 whole entry, looked up): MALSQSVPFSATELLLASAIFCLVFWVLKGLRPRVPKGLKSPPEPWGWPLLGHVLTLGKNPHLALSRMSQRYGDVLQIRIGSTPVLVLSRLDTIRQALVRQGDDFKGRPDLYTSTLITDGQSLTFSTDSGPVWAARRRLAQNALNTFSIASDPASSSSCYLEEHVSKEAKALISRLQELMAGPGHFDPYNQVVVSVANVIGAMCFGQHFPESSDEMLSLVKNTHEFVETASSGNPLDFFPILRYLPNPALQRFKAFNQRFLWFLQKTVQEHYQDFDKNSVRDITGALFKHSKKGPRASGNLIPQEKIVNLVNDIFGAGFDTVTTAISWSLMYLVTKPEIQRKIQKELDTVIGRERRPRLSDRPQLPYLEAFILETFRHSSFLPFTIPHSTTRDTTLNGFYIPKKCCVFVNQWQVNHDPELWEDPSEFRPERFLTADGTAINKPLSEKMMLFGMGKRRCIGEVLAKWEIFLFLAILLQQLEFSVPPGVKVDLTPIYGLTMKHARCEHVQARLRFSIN
- assay_remarks: p450-cyp1a2 (AID 410)
- measurement_context: recombinant CYP1A2, luciferin-ME demethylation, luminescence; series mostly up to 57 µM
Results filed as inconclusive are left out. Calls of active or inactive are those of the source. The call rests on the fitted dose curve.
Pick one: class 1 (active), class 0 (inactive)

*Q* // param item: `COC(=O)N1CCC2(CCCN(Cc3nccs3)C2)CC1` ; yields the recorded call
*A* class 0

*Q* // param item: `CC(=O)NCCNc1ncnc2ccc(-c3ccc4c(c3)OCO4)cc12` ; yields the recorded call
*A* class 1

*Q* // param item: `Cc1nc2cnc(Nc3ccccc3)nc2n(CCc2ccccc2)c1=O` ; yields the recorded call
*A* class 1

*Q* // param item: `COC(=O)N1CCC2(CCCN(C(c3ccccc3)c3ccccc3)C2)CC1` ; yields the recorded call
*A* class 1

*Q* // param item: `CN(C)c1ccc(-c2cncnc2-n2ccnc2)cc1` ; yields the recorded call
*A* class 1
